System: MDA-MB-231;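 note: viability of the cells left after supernatant collection, read with Deep Blue dye added for 4 h, as absorbance at 570 nm minus 600 nm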
Assay: cell viability relative to vehicle unstimulated control (fraction); higher = more viable cells
Conditions: pre-treatment time: 18 h then 24 h IFNg/TNF
observation-type: cell viability
Provide a numeric answer; units are not to be included.

Give MDA-MB-231 cell viability for C[C@@H]1O[C@@H](O[C@H]2[C@H](OC(=O)[C@]34CCC(C)(C)C[C@H]3C3=CC[C@@H]5[C@@]6(C)C[C@H](O)[C@H](O[C@@H]7O[C@H](CO)[C@@H](O)[C@H](O[C@@H]8O[C@H](CO)[C@@H](O)[C@H](O)[C@H]8O)[C@H]7O)C(CO)(CO)[C@@H]6CC[C@@]5(C)[C@]3(C)C[C@H]4O)OC[C@H](O)[C@@H]2O)[C@H](O)[C@H](O)[C@H]1O[C@@H]1OC[C@@H](O)[C@H](O[C@@H]2OC[C@](O)(CO)[C@H]2O)[C@H]1O [Platycodin D2] (compound dose: 10 uM) 0.756

Quick check: cell viability on MDA-MB-231, item CC1(C)CC[C@]2(C(=O)O)CC[C@]3(C)C(=CC[C@@H]4[C@@]5(C)CCC(=O)C(C)(C)[C@@H]5CC[C@]43C)[C@@H]2C1 [Oleanonic acid] (compound dose: 10 uM) ? 0.957

So what cell viability did O=C(O)C1=CO[C@@H](O[C@@H]2O[C@H](CO)[C@@H](O)[C@H](O)[C@H]2O)[C@@H]2C(CO)=C[C@H](O)[C@H]12 [Deacetylasperulosidic acid] (compound dose: 10 uM) get with MDA-MB-231? 1.01
